Target: Human IP6K1 (Homo sapiens, UniProt Q92551)
Construct: GST (N, cleaved yes); made in house; host or cells: C43 E. coli, pGEX-6P-2
Sequence (Q92551 whole entry): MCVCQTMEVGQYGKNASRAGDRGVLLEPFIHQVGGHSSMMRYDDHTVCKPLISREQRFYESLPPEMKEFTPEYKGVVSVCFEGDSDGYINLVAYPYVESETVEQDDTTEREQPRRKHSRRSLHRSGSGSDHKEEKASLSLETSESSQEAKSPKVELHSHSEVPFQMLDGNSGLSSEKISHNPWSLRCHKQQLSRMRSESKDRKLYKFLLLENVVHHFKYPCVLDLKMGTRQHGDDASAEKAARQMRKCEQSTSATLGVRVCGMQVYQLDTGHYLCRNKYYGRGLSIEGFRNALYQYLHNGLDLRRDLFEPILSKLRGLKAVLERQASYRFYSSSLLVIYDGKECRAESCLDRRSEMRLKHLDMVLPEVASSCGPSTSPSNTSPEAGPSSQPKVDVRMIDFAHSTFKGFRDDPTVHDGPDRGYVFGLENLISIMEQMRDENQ
Procedure Details: IP6K1 high-throughput screen of the Sigma LOPAC (ADP-Glo Max, single point);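 further: final compound concentration 10µM in 5% DMSO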
Assay type: biochemical
Condition: Sigma LOPAC single-point screen, ADP-Glo Max raw signal per well
Where a name gives a salt, the structure may show the parent alone.
Raw Signal overview
Observed Property: Raw Signal

Molecule: O=C(O)C1CCCNC1 (racemic) [(±)-Nipecotic acid]
Observed Property: Raw Signal
Value Reported: 63719
//
Molecule: C[N+]1(C)[C@@H]2CC[C@H]1C[C@@H](OC(=O)C(CO)c1ccccc1)C2 (stereo partly drawn) [Atropine methyl nitrate]
Observed Property: Raw Signal
Value Reported: 60117
//
Molecule: CN1C(C)(C)CCCC1(C)C [Pempidine tartrate]
Observed Property: Raw Signal
Value Reported: 56899
//
Molecule: CC[N+](CC)(CC)CCOc1ccc(/C=C/c2ccccc2)cc1
Observed Property: Raw Signal
Value Reported: 57360
//
Molecule: CS(=O)(=O)O.Cn1cc(C(F)(F)F)nc1-c1ccc(OCC(O)CNCCOc2ccc(O)c(C(N)=O)c2)cc1 (stereo not drawn) [CGP 20712A methanesulfonate]
Observed Property: Raw Signal
Value Reported: 57129
//
Molecule: O=C(O)Cc1ccc(O)c(O)c1 [3,4-Dihydroxyphenylacetic acid]
Observed Property: Raw Signal
Value Reported: 57060
//
Molecule: Cl.Fc1ccc(CN(C2=NCCN2)c2c(Cl)cccc2Cl)cc1 [IMID-4F hydrochloride]
Observed Property: Raw Signal
Value Reported: 60859
//
Molecule: Nc1nc2[nH]c(=O)cnc2c(=O)[nH]1
Observed Property: Raw Signal
Value Reported: 59100
//
Molecule: Cc1nc2sccn2c(=O)c1CCN1CCC(=C(c2ccccc2)c2ccc(F)cc2)CC1
Observed Property: Raw Signal
Value Reported: 59347
//
Molecule: CC(C)COCC(CN(Cc1ccccc1)c1ccccc1)N1CCCC1 (stereo not drawn) [Bepridil hydrochloride]
Observed Property: Raw Signal
Value Reported: 60020
//
Molecule: C[C@]12CCC(=O)C=C1CC[C@@H]1[C@@H]2[C@@H](O)C[C@@]2(C)[C@H]1CC[C@]2(O)C(=O)COC(=O)CCC(=O)[O-].[Na+] [Hydrocortisone 21-hemisuccinate sodium]
Observed Property: Raw Signal
Value Reported: 57689
//
Molecule: NC(CCCP(=O)(O)O)C(=O)O (racemic) [(±)-2-Amino-5-phosphonopentanoic acid]
Observed Property: Raw Signal
Value Reported: 60299
//
Molecule: NCC(CP(=O)(O)O)c1ccc(Cl)cc1 (stereo not drawn)
Observed Property: Raw Signal
Value Reported: 61057
//
Molecule: COc1ccc(CCNC[C@H](O)c2ccc(O)cc2)cc1OC [R(-)-Denopamine]
Observed Property: Raw Signal
Value Reported: 58220
//
Molecule: COc1ccc(CN(CCN(C)C)c2ccccn2)cc1 [Pyrilamine maleate]
Observed Property: Raw Signal
Value Reported: 60252
//
Molecule: CC(C)[N+]1(C)[C@@H]2CC[C@H]1C[C@@H](OC(=O)C(CO)c1ccccc1)C2 (stereo partly drawn) [Ipratropium bromide]
Observed Property: Raw Signal
Value Reported: 56944
//
Molecule: CC(C)(C(=O)O)c1ccc(C(O)CCCN2CCC(C(O)(c3ccccc3)c3ccccc3)CC2)cc1 (stereo not drawn) [Fexofenadine hydrochloride]
Observed Property: Raw Signal
Value Reported: 58731
//
Molecule: N.S=C(S)N1CCCC1 [Ammonium pyrrolidinedithiocarbamate]
Observed Property: Raw Signal
Value Reported: 60867
//
Molecule: C[C@@H]1O[C@H](C[N+](C)(C)C)CS1.[I-] [OXA-22 iodide]
Observed Property: Raw Signal
Value Reported: 57438
//
Molecule: CN(C)CCC=C1c2ccccc2COc2ccccc21 [Doxepin hydrochloride]
Observed Property: Raw Signal
Value Reported: 58742
//
Molecule: CNCCC(Oc1ccc(C(F)(F)F)cc1)c1ccccc1 (stereo not drawn) [Fluoxetine hydrochloride]
Observed Property: Raw Signal
Value Reported: 60043

###

Target: Human IP6K1 (Homo sapiens)
Construct: GST (N, cleaved yes); made in house; host or cells: C43 E. coli, pGEX-6P-2
Procedure Details: IP6K1 high-throughput screen of the Sigma LOPAC (ADP-Glo Max, single point);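 further: final compound concentration 10µM in 5% DMSO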
Format: biochemical
Condition: LOPAC single-point screen, ADP-Glo Max raw signal per well
Where a name gives a salt, the structure may show the parent alone.
Raw Signal overview

Molecule: C=C/C(C)=C/[C@@]1(C)SC(=O)C(C)=C1O
Raw Signal: 51778
//
Molecule: C[C@H](CS)C(=O)N1CCC[C@H]1C(=O)O
Raw Signal: 58254
//
Molecule: CN(C)CCCC1(c2ccc(F)cc2)OCc2cc(C#N)ccc21 (centres unmarked) [Citalopram hydrobromide]
Raw Signal: 58251
//
Molecule: COc1cc(CCN)ccc1O.Cl
Raw Signal: 53513
//
Molecule: Cc1nc2c([nH]1)c(=O)n(C)c(=O)n2Cc1ccco1
Raw Signal: 55994
//
Molecule: COc1cc2nc(N3CCN(C(=O)c4ccco4)CC3)nc(N)c2cc1OC [Prazosin hydrochloride]
Raw Signal: 56945
//
Molecule: CCSC(=N)Nc1ccc(C(F)(F)F)cc1.Cl [TFPI hydrochloride]
Raw Signal: 53926
//
Molecule: C[C@]12CCC(=O)C=C1CC[C@@H]1[C@@H]2[C@@H](O)C[C@@]2(C)[C@H]1CC[C@]2(O)C(=O)CO [Hydrocortisone]
Raw Signal: 54144
//
Molecule: O=C(O)CN(CCN(CC(=O)O)CC(=O)O)CCN(CC(=O)O)CC(=O)O
Raw Signal: 53021
//
Molecule: CN(C)CCC(c1ccc(Br)cc1)c1ccccn1.O=C(O)/C=C\C(=O)O (racemic) [(±)-Brompheniramine maleate]
Raw Signal: 59748
//
Molecule: CCCCCCCCCCCCCCC[C@H](O)[C@H](N)CO (racemic) [DL-erythro-Dihydrosphingosine]
Raw Signal: 54857
//
Molecule: C=CCN1CC[C@]23c4c5ccc(O)c4O[C@H]2C(=O)CC[C@@]3(O)[C@H]1C5 [Naloxone hydrochloride]
Raw Signal: 55041
//
Molecule: Cc1cc(NC(=O)Nc2ccc3c(ccn3C)c2)sn1
Raw Signal: 55947
//
Molecule: C[C@@H]1O[C@H](C[N+](C)(C)C)C[C@H]1O.[Cl-] (racemic) [(±)-Muscarine chloride]
Raw Signal: 54548

###

Target: Human IP6K1 (Homo sapiens, UniProt Q92551)
Construct: GST (N, cleaved yes); made in house; host or cells: C43 E. coli, pGEX-6P-2
Procedure Details: IP6K1 high-throughput screen of the Sigma LOPAC (ADP-Glo Max, single point);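 further: final compound concentration 10µM in 5% DMSO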
Type: biochemical
Condition: Sigma LOPAC single-point screen, ADP-Glo Max raw signal per well

Compound: N[C@@H](Cc1c[nH]c2ccccc12)C(=O)O [L-Tryptophan]
Raw Signal: 60593
//
Compound: COc1ccc2[nH]cc(CCN(C)C)c2c1.O=C(O)C(=O)O [5-Methoxy DMT oxalate]
Raw Signal: 59658
//
Compound: CCOC(=O)C1=C(C)NC(C)=C(C(=O)OC)C1c1cccc([N+](=O)[O-])c1 (centres unmarked) [Nitrendipine]
Raw Signal: 58110
//
Compound: COc1ccccc1N1CCN(CCCCNC(=O)c2ccc3ccccc3c2)CC1 [BP 897]
Raw Signal: 60942
//
Compound: O=C(c1cc(O)c(O)c([N+](=O)[O-])c1)c1ccccc1F [Ro 41-0960]
Raw Signal: 58523

###

Target: Human IP6K1 (Homo sapiens, UniProt Q92551)
Construct: GST (N, cleaved yes); made in house; host or cells: C43 E. coli, pGEX-6P-2
Procedure Details: IP6K1 high-throughput screen of the Sigma LOPAC (ADP-Glo Max, single point);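 further: final compound concentration 10µM in 5% DMSO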
Assay type: biochemical
Condition: Sigma LOPAC single-point screen, ADP-Glo Max raw signal per well
Raw Signal overview

Molecule: Cl.Cl.Oc1ccc2c3c1O[C@H]1c4[nH]c5c(c4C[C@@]4(O)[C@@H](C2)N(CC2CC2)CC[C@]314)C[C@@]1(O)[C@H]2Cc3ccc(O)c4c3[C@@]1(CCN2CC1CC1)[C@H]5O4 [nor-Binaltorphimine dihydrochloride]
Target: Human IP6K1 (Homo sapiens, UniProt Q92551)
Raw Signal: 56488
--
Molecule: CCCCC[C@H](CC(=O)NO)C(=O)N[C@H](C(=O)N1CCC[C@H]1CO)C(C)C
Target: Human IP6K1 (Homo sapiens, UniProt Q92551)
Raw Signal: 64769
--
Molecule: C[C@H](N)CN1CCc2ccc(Br)cc21.C[C@H](N)CN1CCc2ccc(Br)cc21.O=C(O)/C=C/C(=O)O [VER-3323 hemifumarate salt]
Target: Human IP6K1 (Homo sapiens, UniProt Q92551)
Raw Signal: 59728
--
Molecule: CN1C(C(=O)Nc2ccccn2)=C(O)c2ccccc2S1(=O)=O
Target: Human IP6K1 (Homo sapiens, UniProt Q92551)
Raw Signal: 59564
--
Molecule: CCOC(=O)[N-]c1cn(N2CCOCC2)n[o+]1
Target: Human IP6K1 (Homo sapiens, UniProt Q92551)
Raw Signal: 60839
